Tested On: Folate receptor (Homo sapiens, UniProt P15328)
Sequence (P15328 25-234): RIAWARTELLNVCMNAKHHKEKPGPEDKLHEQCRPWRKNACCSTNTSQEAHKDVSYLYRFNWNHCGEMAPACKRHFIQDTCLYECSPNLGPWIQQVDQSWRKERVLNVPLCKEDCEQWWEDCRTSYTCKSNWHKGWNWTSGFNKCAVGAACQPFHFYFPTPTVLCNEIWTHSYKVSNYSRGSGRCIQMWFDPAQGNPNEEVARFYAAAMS
Recorded Endpoint: pIC50
Interpret pIC50 as the negative base-10 log of the concentration measured in mol/L.

GET pIC50 | system: Folate receptor (Homo sapiens, UniProt P15328) | item: Nc1nc2ncc(CNc3ccc(C(=O)N[C@@H](CCC(=O)O)C(=O)O)c(F)n3)nc2c(=O)[nH]1 [3′-aza-2′-fluorofolic acid]
9.09
